test system: HSkMC (human skeletal muscle cells); assay: cytotoxicity call (relative viability < 0.9); details: 10 µM
Hit rate of the full screen: of about 39,000 compounds, about 1,500 (3.8%) were called active. Many of the other results were omitted from the sample, so actives are more common in it than they were.
Please state which outcome applies, choosing from YES = active, NO = inactive

See these solved cases before continuing.
* C[C@@H]1CN([C@H](C)CO)C(=O)c2cc(NC(=O)C3CCCCC3)ccc2O[C@@H](C)CCCCO[C@@H]1CN(C)C(=O)c1ccccc1 | NO
* C[C@H](CO)N1C[C@H](C)[C@H](CN(C)S(=O)(=O)c2cn(C)cn2)Oc2ncc(C3=CCCC3)cc2C1=O | NO
* C[C@@H]1CN([C@@H](C)CO)C(=O)c2cc(NC(=O)Nc3ccc(C(F)(F)F)cc3)ccc2O[C@H]1CN(C)C(=O)NC1CCCCC1 | NO

Now for a further compound.
## Input Just curious, what result did C[C@@H]1CCCCO[C@H](CN(C)C(=O)Nc2ccc(F)cc2)[C@@H](C)CN([C@@H](C)CO)C(=O)c2cc(NC(=O)c3ccccc3)ccc2O1 get here?
## Output NO
